Test system: COLO 205 colon
protocol_text: NCI tumour cell line growth inhibition, 48 h
The following molecules are listed with their measured TGI values.

Sample records with TGI:
[
  {
    "molecule": "Cc1cccc(O)c1-c1nnc(CCCCCCCCc2nnc(-c3c(C)cccc3O)n2N)n1N",
    "measure": "TGI",
    "assay_value": "> 31.6 µM"
  },
  {
    "molecule": "CCOc1cc2ccc3c4cc(OC)c(OC)cc4cnc3c2cc1OCC",
    "measure": "TGI",
    "assay_value": "> 100 µM"
  },
  {
    "molecule": "COc1cc(Br)c(CC2(C#N)c3ccccc3C3C(N2C(=O)c2ccccc2)C3(Cl)Cl)cc1OC (centres undefined)",
    "measure": "TGI",
    "assay_value": "> 65.5 µM"
  }
]

Now turn to the next molecule.
Q: Report TGI for `Cc1ccccc1N=CN(C)C` tested on COLO 205 colon.
A: > 100 µM
